Every entry's value here was drawn from patent US4863918A.

- Method notes: Cardiovascular change (HR, BP) at equi-efficacious dose in rabbits
- Type: in vivo
- Condition context: Table IV, rabbit, at equi-efficacious dose
Examples of molecules with documented BP % follow.
Experimental readout: BP % (%)

• CC(=O)O[C@H]1C[C@@H]2CC[C@@H]3[C@H](CC[C@@]4(C)[C@H]3C[C@H]([N+]3(C)CCCCC3)[C@@H]4OC(C)=O)[C@@]2(C)C[C@@H]1N1CCCCC1 = 1.1
• COc1cc2c3cc1Oc1cc(ccc1O)C[C@@H]1c4c(cc(OC)c(O)c4Oc4ccc(cc4)C[C@@H]3N(C)CC2)CC[N+]1(C)C = 4.8
• C[N+](C)(C)CCCCCCCCCC[N+](C)(C)C = -2.6
• C[N+](C)(C)CCOC(=O)CCC(=O)OCC[N+](C)(C)C = -4.1
• COc1ccc2cc1Oc1cc3c(cc1OC)CC[N+](C)(C)[C@H]3Cc1ccc(cc1)Oc1c(OC)c(OC)cc3c1[C@@H](C2)[N+](C)(C)CC3 = -1.6
• COc1cc2c(cc1OC)C(Cc1cc(OC)c(OC)c(OC)c1)[N+](C)(CCCOC(=O)CCC=CCCC(=O)OCCC[N+]1(C)CCc3cc(OC)c(OC)cc3C1Cc1cc(OC)c(OC)c(OC)c1)CC2 (stereo not shown) = 1.2
• CC(=O)O[C@H]1C[C@@H]2CC[C@@H]3[C@H](CC[C@@]4(C)[C@H]3C[C@H]([N+]3(C)CCCCC3)[C@@H]4OC(C)=O)[C@@]2(C)C[C@@H]1[N+]1(C)CCCCC1 = 2.7

----------
- System: paw twitch
- Method notes: Twitch depression (muscle relaxant effect) in anesthetized rabbits; rabbit paw twitch
- Type: in vivo, New Zealand White rabbits
- Condition context: Table IV, rabbit, at equi-efficacious dose
Experimental readout: Duration (DURAT.) (min)

• COc1ccc(CC2c3cc(OC)c(OC)cc3CC[N+]2(C)CCC(=O)OCCCCCOC(=O)CC[N+]2(C)CCc3cc(OC)c(OC)cc3C2Cc2ccc(OC)c(OC)c2)cc1OC (centres unmarked) [atracurium] = 14.3
• COc1ccc2cc1Oc1cc3c(cc1OC)CC[N+](C)(C)[C@H]3Cc1ccc(cc1)Oc1c(OC)c(OC)cc3c1[C@@H](C2)[N+](C)(C)CC3 [metocurine] = 37.8
• C[C@]12CC[C@@H]([N+]3(C)CCCC3)C[C@@H]1CC[C@@H]1[C@@H]2CC[C@@]2(C)[C@H]1CCC[N+]2(C)C.[Br-].[Br-] [RGH-4201] = 7.7
• CC(=O)O[C@H]1C[C@@H]2CC[C@@H]3[C@H](CC[C@@]4(C)[C@H]3C[C@H]([N+]3(C)CCCCC3)[C@@H]4OC(C)=O)[C@@]2(C)C[C@@H]1[N+]1(C)CCCCC1 [pancuronium] = 32.5
• COc1cc2c3cc1Oc1cc(ccc1O)C[C@@H]1c4c(cc(OC)c(O)c4Oc4ccc(cc4)C[C@@H]3N(C)CC2)CC[N+]1(C)C [d-tubocurarine] = 37.3

----------
- Method notes: Cardiovascular change (HR, BP) at equi-efficacious dose in rabbits
- Assay type: in vivo
- Condition context: Table IV, rabbit, at equi-efficacious dose
Experimental readout: HR % (%)

* COc1ccc2cc1Oc1cc3c(cc1OC)CC[N+](C)(C)[C@H]3Cc1ccc(cc1)Oc1c(OC)c(OC)cc3c1[C@@H](C2)[N+](C)(C)CC3 | 0.2
* COc1cc2c(cc1OC)C(Cc1cc(OC)c(OC)c(OC)c1)[N+](C)(CCCOC(=O)CCC=CCCC(=O)OCCC[N+]1(C)CCc3cc(OC)c(OC)cc3C1Cc1cc(OC)c(OC)c(OC)c1)CC2 (stereo not shown) | -0.4
* CC(=O)O[C@H]1C[C@@H]2CC[C@@H]3[C@H](CC[C@@]4(C)[C@H]3C[C@H]([N+]3(C)CCCCC3)[C@@H]4OC(C)=O)[C@@]2(C)C[C@@H]1N1CCCCC1 | -1.9
* CC(=O)O[C@H]1C[C@@H]2CC[C@@H]3[C@H](CC[C@@]4(C)[C@H]3C[C@H]([N+]3(C)CCCCC3)[C@@H]4OC(C)=O)[C@@]2(C)C[C@@H]1[N+]1(C)CCCCC1 | 0.0
* COc1cc2c3cc1Oc1cc(ccc1O)C[C@@H]1c4c(cc(OC)c(O)c4Oc4ccc(cc4)C[C@@H]3N(C)CC2)CC[N+]1(C)C | -0.3
* C[N+](C)(C)CCCCCCCCCC[N+](C)(C)C | -2.8
* C[N+](C)(C)CCOC(=O)CCC(=O)OCC[N+](C)(C)C | 0.2
